- Tested on: L1210 leukemia ip in BDF1 mice, survival T/C
- assay-overview: NCI In Vivo Anticancer Drug Screen. Data for tumor model L1210 Leukemia (intraperitoneal) in B6D2F1 (BDF1) mice
- measurement-conditions: endpoint: mean survival time; dose: 6.25 mg/kg/injection; schedule: Q01DX009 (ip); vehicle: saline; higher = longer survival
Toxic doses and inconclusive results are not listed.
reported-endpoint: T/C

> print(dat)
                             compound            result
1     CN1CCN=C(c2ccccc2)c2cc(Cl)ccc21  110 % of control
2  NC(=O)c1ccc[n+](Cc2c(Cl)cccc2Cl)c1  122 % of control
3                Cc1cccc[n+]1CCC(N)=O   97 % of control
4                              C=CC=O   90 % of control

Recall and state the measured T/C for O=C(O)C1C2C=CC(C3C=CC32)C1C(=O)O (stereo not given) .
98 % of control

###

- Tested on: L1210 leukemia ip in BDF1 mice, survival T/C
- assay-overview: NCI In Vivo Anticancer Drug Screen. Data for tumor model L1210 Leukemia (intraperitoneal) in B6D2F1 (BDF1) mice
- measurement-conditions: endpoint: mean survival time; dose: 200.0 mg/kg/injection; schedule: Q01DX009 (ip); vehicle: saline; higher = longer survival
Inconclusive results and toxic doses are left out.
reported-endpoint: T/C

Examples with their reported T/C follow.
> print(dat)
                                   molecule            result
1  COC(=O)C(CO)NC(c1ccccc1)(c1ccccc1)c1ccccc1 (configuration not stated)   92 % of control
2  COC(=O)CCC(NC(=O)C1CCN(C(=O)OCc2ccccc2)CC1)C(=O)OC (configuration not stated)  102 % of control
3  C#CC(C)(C)OCC1CO1 (configuration not stated)  108 % of control
4              CN(C)Cc1ccc([N+](=O)[O-])cc1   96 % of control
5  CN(/N=C/C(O)C(O)C(O)CO)c1ccccc1 (configuration not stated)   90 % of control

Hey, quick one: what's T/C for each of these?
1. COc1cc2ccc3c(c2cc1OC)CNCC3
2. O=C(O)/C=C\C(=O)Nc1ccccc1NC(=O)/C=C/C(=O)O
3. COC(=O)C(N)Cc1ccc(OC(c2ccccc2)(c2ccccc2)c2ccccc2)cc1 (configuration not stated)
4. O=S(=O)(O)CCCN1CCCCC1
5. CC(=O)CCCN(CCO)CCO
6. CS(=O)(=O)Nc1nc2ccccc2[nH]1
7. c1nc(N2CC2)c2cnn(C3CCCCO3)c2n1 (configuration not stated)

1: 88 % of control; 2: 94 % of control; 3: 100 % of control; 4: 112 % of control; 5: 92 % of control; 6: 86 % of control; 7: 112 % of control

###

- Tested on: L1210 leukemia ip in BDF1 mice, survival T/C
- assay-overview: NCI In Vivo Anticancer Drug Screen. Data for tumor model L1210 Leukemia (intraperitoneal) in B6D2F1 (BDF1) mice
- measurement-conditions: endpoint: mean survival time; dose: 12.5 mg/kg/injection; schedule: Q04DX003 (ip); vehicle: saline; higher = longer survival
Inconclusive results and toxic doses are left out.
reported-endpoint: T/C

Examples with their reported T/C follow.
> print(dat)
                                   molecule           result
1  O=[N+]([O-])c1ccc(C[n+]2ccc3ccccc3c2)cc1  97 % of control
2                                    C=CC=O  89 % of control
3  [Cu+2].[NH-]C(CCC(N)=O)C(=O)O.[NH-]C(CCC(N)=O)C(=O)O (stereo not given)  91 % of control
4  CC1(c2ccc(N(CCCl)CCCl)cc2)NC(=O)NC1=O (stereo not given)  98 % of control

Then this molecule:
Recall and state the measured T/C for O=C1O/C(=C/Br)C=C1Br .
100 % of control

###

- Test system: L1210 leukemia ip in BDF1 mice, survival T/C
- assay-overview: NCI In Vivo Anticancer Drug Screen. Data for tumor model L1210 Leukemia (intraperitoneal) in B6D2F1 (BDF1) mice
- measurement-conditions: endpoint: mean survival time; dose: 200.0 mg/kg/injection; schedule: Q04DX003 (ip); vehicle: saline sonified; higher = longer survival
Toxic doses and inconclusive results are not listed.
reported-endpoint: T/C

Examples with their reported T/C follow.
> print(dat)
                                   compound  reported.endpoint            result
1  CCOC(=O)C(O)c1cccc(OC)c1 (stereo not given)                T/C   94 % of control
2  CC1(O)c2ccccc2-c2nc3ccccc3nc21 (stereo not given)                T/C  110 % of control
3  CCCCCC(C(C)=O)(C1=NC(C)(C)CC(C)O1)c1ccccc1 (stereo not given)                T/C  120 % of control

Hey, quick one: what's T/C for each of these?
1. CCN1CCCC(Nc2nc(Nc3cc(Cl)cc(Cl)c3)nc3cc(Cl)ccc23)C1 (stereo not given)
2. N#CCC(=O)N1Cc2cc3ccccc3nc2C1

1. 97 % of control
2. 95 % of control

###

- Test system: L1210 leukemia ip in BDF1 mice, survival T/C
- assay-overview: NCI In Vivo Anticancer Drug Screen. Data for tumor model L1210 Leukemia (intraperitoneal) in B6D2F1 (BDF1) mice
- measurement-conditions: endpoint: mean survival time; dose: 200.0 mg/kg/injection; schedule: Q01DX001 (ip); vehicle: saline; higher = longer survival
Inconclusive results and toxic doses are left out.
Record form. Attribute: T/C. Fill in for each entry.

> print(dat)
                                   compound                     target.or.test.system            result
1  Clc1ccccc1/C=N/N1CCN(/N=C/c2ccccc2Cl)CC1  L1210 leukemia ip in BDF1 mice, survival T/C   95 % of control
2     Nc1cccc(OCCOc2ccc([N+](=O)[O-])cc2)c1  L1210 leukemia ip in BDF1 mice, survival T/C  104 % of control
3  CCOC(=O)/C=C(\CC(=O)OCC)Nc1ccc(C(=O)c2ccccc2)cc1  L1210 leukemia ip in BDF1 mice, survival T/C   89 % of control
4               CCCCNC(=O)n1ncc2cc(Cl)ccc21  L1210 leukemia ip in BDF1 mice, survival T/C  100 % of control
5                           COP(=O)(CCBr)OC  L1210 leukemia ip in BDF1 mice, survival T/C  102 % of control
6  NC(C(=O)O)c1ccc(F)cc1 (stereo unspecified)  L1210 leukemia ip in BDF1 mice, survival T/C  101 % of control
7                        CN(C)CCSS(=O)(=O)O  L1210 leukemia ip in BDF1 mice, survival T/C   96 % of control
8  CC(C)(C)C(Br)C(=O)Nc1ccccc1 (stereo unspecified)  L1210 leukemia ip in BDF1 mice, survival T/C  102 % of control

Hey, quick one: what's T/C for each of these?
1. CCN(CC)c1ccc(N=C2C=C(C(=O)Nc3ccccc3OC)C(=O)c3ccccc32)c(C)c1
2. COC(=O)c1nc2ccc([N+](=O)[O-])cc2n1O
3. CC(C)SSC(C)C
4. COc1nccnc1NS(=O)(=O)c1ccc(N)cc1
5. CC(=O)N1C(=O)/C(=C\c2cc3c(cc2Br)OCO3)c2cc3c(cc21)OCO3

1. 105 % of control
2. 93 % of control
3. 108 % of control
4. 96 % of control
5. 106 % of control

###

Record form. Attribute: T/C. Fill in for each entry.
- Tested on: L1210 leukemia ip in BDF1 mice, survival T/C
- assay-overview: NCI In Vivo Anticancer Drug Screen. Data for tumor model L1210 Leukemia (intraperitoneal) in B6D2F1 (BDF1) mice
- measurement-conditions: endpoint: mean survival time; dose: 200.0 mg/kg/injection; schedule: Q01DX001 (ip); vehicle: saline; higher = longer survival
Inconclusive results and toxic doses are left out.

Examples with their reported T/C follow.
> print(dat)
                                   molecule  reported.endpoint            result
1                    CC(=O)c1cc2c(cc1C)OCO2                T/C   97 % of control
2         CN(C)c1ccc(/C=C\C(=O)c2ccccc2)cc1                T/C  111 % of control
3  NC(CC1C=CC=CC1)C(=O)O (stereo not drawn)                T/C   98 % of control
4  O=C(ON=C1C=CC(=NOC(=O)c2ccccc2)C=C1)c1ccccc1                T/C  102 % of control
5  O=C(COC(=O)c1ccccc1C(=O)c1ccccc1O)c1ccc(-c2ccccc2)cc1                T/C   91 % of control
6              Cc1ccc(S(=O)(=O)c2ccccc2C)s1                T/C   98 % of control
7  CC(=O)C(C)CCOC1(C)OCCC1C (stereo not drawn)                T/C  100 % of control
8                   CNc1nc2nc[nH]c2c(=S)n1C                T/C  100 % of control

Hey, quick one: what's T/C for each of these?
1. O=S(=O)(/C(=C\c1ccccc1)c1ccccc1)c1ccccc1
2. Nc1ccc(C(=O)O)cn1
3. O=C1c2ccccc2-c2cc3ccccc3cc21
4. CC(C)=CC(=O)OC1C2C(CC(C)C3C(O)CC(=O)C13C)OC(=O)C2C (stereo not drawn)
5. Nc1cc(S(=O)(=O)O)cc2ccccc12

93 % of control
100 % of control
101 % of control
100 % of control
92 % of control
